Test system: NOMO1
Assay: cell viability relative to DMSO control; higher = less cytotoxic
Conditions: HPLM + 10% dialyzed FBS; 48 h; 0.0211 µM
Quick list: cell viability per entry.
State the value with its unit after it.

// worked examples, cell viability included
>  <Compound>
CC(=O)O.Cc1c(-c2ccc(O)cc2)n(Cc2ccc(OCCN3CCCCCC3)cc2)c2ccc(O)cc12

>  <cell viability>
95.6%

$$$$
>  <Compound>
COc1ccc(-c2cc3nccn3c(Nc3ncccc3C(N)=O)n2)cc1OC

>  <cell viability>
117%

$$$$
>  <Compound>
Cc1c(CCOc2ccc(C(=O)O)cc2)c2cc(Cl)ccc2n1C(c1ccccc1)c1ccccc1

>  <cell viability>
116%

$$$$
>  <Compound>
CC(C)OC(=O)OCOP(=O)(CO[C@H](C)Cn1cnc2c(N)ncnc21)OCOC(=O)OC(C)C.O=C(O)C=CC(=O)O

>  <cell viability>
105%

$$$$
>  <Compound>
OC[C@H]1O[C@@H](O[C@@H]2[C@@H](CO)O[C@](O)(CO)[C@H]2O)[C@H](O)[C@@H](O)[C@H]1O

>  <cell viability>
113%

$$$$

Consider the compound shown here: CC[C@H](CC[C@@H](C)[C@H]1CC[C@H]2[C@@H]3C\C=C/4C[C@@H](O)CC[C@]4(C)[C@H]3CC[C@]12C)C(C)C What is its recorded cell viability?
117%
